These measurements were taken from PubChem BioAssay.

For each entry below, report its viability value.
- method: reversal of MRP1-mediated doxorubicin resistance, pilot screen, H69AR cells, doxorubicin co-treatment (AID 601)
- setup-conditions: H69AR cells, CellTiter-Glo, 72 h; compound alone cytotoxicity; at 10 µM
Numbers only; they are read as %.

input: viability for "CCOC(=O)C1CCN(C(=O)CSc2cc(=O)n(CC)c3ccccc23)CC1" ?
output: 92.4

input: Then this molecule: O=C(NCc1cccnc1)C1CCCN(S(=O)(=O)c2ccc(Cl)cc2)C1 (stereo not drawn)
output: 86.9

input: And for "CCc1ccccc1NC(=O)CSc1nc2n[nH]c(C)c2c(=N)n1-c1ccc(OC)cc1" ?
output: 80

input: Further, for "CCOC(=O)CSc1nnc(CCc2nc3ccccc3[nH]2)n1C" ?
output: 102

input: Now this one: "CCOC(=O)c1ccc(Oc2nc(SC)nc(N(C)C)n2)cc1"
output: 107

input: Please give the result for "O=C(Nc1ccc2oc(-c3ccncc3)nc2c1)c1cccs1" too.
output: 79.6

input: And what about the molecule "CCOC(=O)N1CCC(N2C(=O)c3ccc(C(=O)NCc4ccco4)cc3C2=O)CC1" ?
output: 85.9

input: Next entry: Cc1cc(NC(=O)CCC(=O)N(c2cccnc2)C(C(=O)NC2CCCC2)c2ccccc2F)no1 (stereo not drawn)
output: 93.3

input: Try this molecule too: "O=C(CNc1ccc(Oc2ccccc2)cc1)N1CCOCC1"
output: 105

input: Proceed to "O=C(CSc1nnc(C2CC2)n1Cc1ccccc1)c1ccc(S(=O)(=O)N2CCOCC2)cc1"
output: 86.9

input: // query: "Cc1ccc(-c2nn(C)c(=O)c3ccccc23)cc1S(=O)(=O)NCCN1CCOCC1"
output: 93.3

input: // same read-out, input: "CCCCNc1cc(C)oc(=O)c1C(C)=O"
output: 97.9

input: How about "CCCCCc1c(C)nc(N2CCc3ccccc32)[nH]c1=O" ?
output: 94.6

input: Also check CC1CCCC(NC(=O)CSc2ncccc2C(=O)O)C1C (stereo not drawn)
output: 87.8

input: Then this molecule: CCCOc1ccc(N2C(=O)C3ON(c4ccccc4)C(c4ccc(O)c(OC)c4)C3C2=O)cc1 (stereo not drawn)
output: 93.8

input: Follow-up entry: "CSc1nc(C)c(C(=O)Nc2ccccc2)c(C)c1C#N"
output: 94.2

input: And "O=S1(=O)N=C(Nc2nc3c(s2)CCCC3)c2ccccc21" ?
output: 78.9

input: "COc1ccc(C(=O)Nc2cccc(C)c2)cc1S(=O)(=O)N1CCOCC1" ?
output: 93.2

input: Moving on to the next molecule: "CCOc1ccc2ccccc2c1/C=N/n1cncn1"
output: 92.3

input: Proceed to O=C(COC(=O)C1CC(=O)N(c2ccccc2)C1)c1ccccc1 (stereo not drawn)
output: 86.6

input: What about this molecule? NS(=O)(=O)c1cc2c(cc1Cl)NC(C1C[C@H]3C=C[C@@H]1C3)NS2(=O)=O (stereo partly drawn)
output: 92.7

input: Now give it for "Cc1ccc(NC(=O)CCC(=O)O)cc1F" too.
output: 104

input: Ok, now CCC1(C)Cc2c(C#N)c(N)n(N)c(=S)c2CO1 (stereo not drawn)
output: 81.7

---

Consider the following molecules; for each one, report its RAM network inhibition.
- method: RAM signaling pathway blockade in yeast – S. cerevisiae, Pdr1DBD-CYC8 efflux-inhibited sensitized strain, primary screen (AID 1298);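 further: 0% = DMSO untreated cells without growth and 100% = 10 µM 1-NA-PP1 full growth; higher means more yeast growth rescued from 5-FOA killing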
- setup-conditions: S. cerevisiae cbk1-as DSE1-URA3 strain, 5-FOA growth OD615, 2 d; at 50 µM; stronger effect = higher value
State the answer as a number, implicitly in %.

input: // RAM network inhibition lookup, key: "Cc1csc(NC(=O)CNS(=O)(=O)c2cccs2)n1"
output: 2.18

input: Cool, now CC(CCc1ccco1)NC(=O)Cn1nc(Cc2ccncc2)c2ccccc2c1=O (stereo unspecified)
output: 1.95

input: // same read-out, input: "O=C(CN(C1CCCCC1)S(=O)(=O)c1ccccc1)N1CCCC1"
output: 2.77

input: Same question, "CC(=O)Nc1ccc(S(=O)(=O)NCCc2cc3c(C)ccc(C)c3[nH]c2=O)cc1" this time
output: 1.05

input: Same question, "C=COCCn1c(-c2nonc2N)nc2ccccc21" this time
output: 6.18

input: Okay, and "Cn1c(=O)[nH]c(=O)c2c1nc(CN1CCOCC1)n2Cc1ccc(F)cc1" ?
output: 2.15
